- Experimental target: SALL4 ZFC4 R900W (HT-SELEX) (Mus musculus, UniProt Q8BX22 870-940, R900W)
- Sequence: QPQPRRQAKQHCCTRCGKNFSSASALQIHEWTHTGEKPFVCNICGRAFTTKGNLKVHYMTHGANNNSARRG
- Assay method text: HT-SELEX; high values mean tight binding
- Run parameters: protein: recombinant; vector His6-GST; dsDNA, one strand shown
Readout label: binding signal
A bare number is not enough; add the unit after it.

Solved entries:
Primary sequence	Readout label	Result
AGGATC	binding signal	1.01 fold-change vs cycle 0
CACCTA	binding signal	0.915 fold-change vs cycle 0
CCTCAC	binding signal	0.561 fold-change vs cycle 0
ACTCAC	binding signal	0.97 fold-change vs cycle 0

Return binding signal (reported value) for this sequence: `CTGAAA`
1.28 fold-change vs cycle 0

Return binding signal (reported value) for this sequence: `ATGATC`
1.46 fold-change vs cycle 0

Return binding signal (reported value) for this sequence: `GTGCAA`
0.616 fold-change vs cycle 0

Return binding signal (reported value) for this sequence: `ATATAG`
1.9 fold-change vs cycle 0

Return binding signal (reported value) for this sequence: `AACGCG`
0.226 fold-change vs cycle 0

Return binding signal (reported value) for this sequence: `AACACT`
1.39 fold-change vs cycle 0

Return binding signal (reported value) for this sequence: `ACAGGA`
1 fold-change vs cycle 0

Return binding signal (reported value) for this sequence: `AGCGTG`
0.35 fold-change vs cycle 0

Return binding signal (reported value) for this sequence: `AGAGAT`
1.65 fold-change vs cycle 0

Return binding signal (reported value) for this sequence: `CAGGGA`
0.57 fold-change vs cycle 0

Return binding signal (reported value) for this sequence: `CAAGGA`
1.02 fold-change vs cycle 0

Return binding signal (reported value) for this sequence: `AAAATC`
1.58 fold-change vs cycle 0

Return binding signal (reported value) for this sequence: `CTAATA`
2.01 fold-change vs cycle 0

Return binding signal (reported value) for this sequence: `AGCTAA`
1.26 fold-change vs cycle 0

Return binding signal (reported value) for this sequence: `CTTTAC`
1.5 fold-change vs cycle 0

Return binding signal (reported value) for this sequence: `ATTATC`
2.08 fold-change vs cycle 0

Return binding signal (reported value) for this sequence: `CGTGTA`
0.756 fold-change vs cycle 0

Return binding signal (reported value) for this sequence: `GCATCC`
0.43 fold-change vs cycle 0

Return binding signal (reported value) for this sequence: `GTGAGA`
0.971 fold-change vs cycle 0

Return binding signal (reported value) for this sequence: `CAGAAG`
0.933 fold-change vs cycle 0
